experiment: NCI Yeast Anticancer Drug Screen. Data for the rad50 strain (AID 155);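 note: 0% = growth of vehicle-only cultures of the same strain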; details: S. cerevisiae rad50 strain growth inhibition; at 50.0 µM; hits give high values
This is part of a sample that, as a whole, favours compounds with a hit. Of some 79,000 tested, about 15% had one in any assay. Activity calls are given as the source filed them. Cut-off read from the data, not from the text of the source: active = growth inhibition above about 70%; inactive = the rest.
What growth inhibition was measured for each of the following?

Past entries and their recorded results:
> print(dat)
                                   compound     reported.value
1                  CC(=O)CC(=O)c1ccc(Cl)cc1  -28.4% (inactive)
2  O=C(Nc1ccccc1)OCC(CN1CCCCC1)OC(=O)Nc1ccccc1 (stereo not drawn)  -35.7% (inactive)
3       O=c1[nH]c(=O)c2[nH]c(=O)[nH]c2[nH]1   8.35% (inactive)
4            CCN(CC)CCOC(=O)c1c(C)cc(C)cc1C   -6.3% (inactive)

Parameters: items (list). Returns: growth inhibition for each item.
1. C[S+](C)N(c1ccccc1)C(C)(C)C
2. CCc1c(C(=O)OC)c(C(=O)OC)c(-c2ccc(C)cc2)n1CCn1c(CC)c(C(=O)OC)c(C(=O)OC)c1-c1ccc(C)cc1
3. Cc1onc(-c2c(F)cccc2Cl)c1-c1ncc(-c2ccc(Cl)cc2)o1
4. O=c1c2[nH]cnc2n(-c2ccccc2)c(=S)n1-c1ccccc1
5. Nc1nc(N)nc(-c2cc(Br)ccc2N)n1
6. COc1cc(-c2cc(=O)c3c(O)c(OC)c(OC)cc3o2)ccc1O
7. OCCS

a:
-10.1% (inactive)
-0.55% (inactive)
3.05% (inactive)
6.5% (inactive)
51.6% (inactive)
-34.3% (inactive)
-7.35% (inactive)

Parameters: items (list). Returns: growth inhibition for each item.
1. O=C(O)/C=C/C(=O)Nc1cc(Cl)cc2c1-c1c(Cl)cc(Cl)cc1C2=O
2. Cc1c(C(=O)OCCCl)c(=O)n(-c2ccccc2)n1C

a:
["30.9% (inactive)", "-43.4% (inactive)"]

###

experiment: NCI Yeast Anticancer Drug Screen. Data for the bub3 strain (AID 167); conditions: S. cerevisiae bub3 mutant strain, at 50.0 µM, hits give high values
Compounds without any hit were thinned out: in the full panel of roughly 79,000, 15% have a hit.
What growth inhibition was measured for each of the following?
One number for each entry, in %.

Past entries and their recorded results:
> print(dat)
                                   compound       measure.name  reported.value
1  CN(C)c1ccc2c(c1)C(O)c1ccccc1-2 (stereo not given)  growth inhibition            19.4
2  Cc1nc(N)nc(-c2ccccc2)c1N=Nc1cc(Cl)cc(Cl)c1  growth inhibition           -5.15

Parameters: items (list). Returns: growth inhibition for each item.
1. CC(=O)OCC1OC(n2ccc(=O)[nH]c2=O)CC1N=[N+]=[N-] (stereo not given)
2. N#CC(/C(CCCC(=O)Nc1cccc([N+](=O)[O-])c1)=N/NC(=O)c1cc2ccccc2cc1O)c1ccccc1 (stereo not given)
3. Cc1c(Cl)cc(Cl)c(N)c1Cl
4. CN(C)C(=O)C1CCC(CC2CCCCC2)CC1 (stereo not given)
5. CC1(CCOCc2ccccc2)NC(=O)N(CCC#N)C1=O (stereo not given)
6. Cc1ccc2c(c1)[nH]c1ccccc12
7. NNC(=O)CC(=O)N(C(=O)/C=C/c1ccccc1)c1ccc(Cl)cc1
8. O=C(O)C1CSCN1 (stereo not given)

a:
1. 13.3
2. 36.8
3. -16.1
4. 98.3
5. 2.55
6. 22.6
7. -14.5
8. 1
